# System: human hepatocyte cell line (HepG2)
# test settings: 24 h
HepG2 cell TD50 values by entry
Just the number please, in µg/mL, no unit attached.

As a guide, the following entries are already answered.
CC[P](C)(C)=[Au][S]c1ncco1 [Compound 12]    5
C[P]1(=[Au][S]c2ccccc2C(=O)O)CCCCC1 [Compound 27]    22
C[P](C)(C)=[Au][S]c1ccc(C(N)=O)cn1 [Compound 16]    17

Challenge: Param item = CNC(=O)C[S][Au]=[P](C)(C)C [Compound 2] ; retrieve measured HepG2 cell TD50.
Response given: 6

Challenge: Param item = COc1ccc([S][Au]=[P](C)(C)C)cc1 [Compound 17] ; retrieve measured HepG2 cell TD50.
Response given: 3.5
